System: 624824-186-R-J3-PDC multicell spheroids, viability;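 also: luminescent signal used as a stand-in for spheroid viability; spheroids exposed to agents for seven days before luminescence read; percent viability relative to DMSO vehicle control wells taken as 100%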
Experiment: Anticancer human tumor 624824-186-R-J3-PDC patient-derived colon adenocarcinoma cell line growth inhibition [PI3K]
Conditions: second compound 3.16 µM; first compound 0.1 µM; active compounds read low
I'd appreciate it if you could supply viability, T/C values for the items below.
Numbers only, in %.

### Prompt Quick check: viability, T/C of CC1(C)CCC(CN2CCN(c3ccc(C(=O)NS(=O)(=O)c4ccc(NCC5CCOCC5)c([N+](=O)[O-])c4)c(Oc4cnc5[nH]ccc5c4)c3)CC2)=C(c2ccc(Cl)cc2)C1 + Cc1nc(NC(=O)N2CCCC2C(N)=O)sc1-c1ccnc(C(C)(C)C(F)(F)F)c1 ?
### Response 91.4

### Prompt Quick check: viability, T/C of Cn1ncc(Cl)c1-c1cc(C(=O)NC(CN)Cc2cccc(F)c2)sc1Cl (stereo not given) + Cc1nc(NC(=O)N2CCCC2C(N)=O)sc1-c1ccnc(C(C)(C)C(F)(F)F)c1 ?
### Response 89

### Prompt Quick check: viability, T/C of Cn1nccc1Nc1nccc(-c2ccn(C(CO)c3ccc(Cl)c(F)c3)c(=O)c2)n1 (stereo not given) + Cc1nc(NC(=O)N2CCCC2C(N)=O)sc1-c1ccnc(C(C)(C)C(F)(F)F)c1 ?
### Response 77.7

### Prompt Quick check: viability, T/C of CC(Cn1ccc(-c2ccc(C#N)c(Cl)c2)n1)NC(=O)c1cc(C(C)O)[nH]n1 (stereo not given) + Cc1nc(NC(=O)N2CCCC2C(N)=O)sc1-c1ccnc(C(C)(C)C(F)(F)F)c1 ?
### Response 91.5

Now take the following compound into account.
### Prompt Quick check: viability, T/C of CCCS(=O)(=O)Nc1ccc(F)c(C(=O)c2c[nH]c3ncc(-c4ccc(Cl)cc4)cc23)c1F + CC(Nc1ncnc2nc[nH]c12)c1cc2cccc(Cl)c2c(=O)n1-c1ccccc1 ?
### Response 90.5
